assay: Stability of the analytes in rat plasma samples (freeze-thaw, short-term, long-term, autosampler); type: in vitro ADME; settings: concentration 100 (µg/mL), room temperature 6 h, n = 3
property.name: Stability (%) Short-term stability

{"compound": "CC(C)(O)[C@@H]1CC[C@](C)([C@H]2[C@@H](O)C[C@@]3(C)[C@@H]4C[C@H](O[C@@H]5O[C@H](CO)[C@@H](O)[C@H](O)[C@H]5O)[C@H]5C(C)(C)[C@@H](O[C@@H]6OC[C@@H](O)[C@H](O)[C@H]6O)CC[C@@]56C[C@@]46CC[C@]23C)O1 [Astragaloside IV, astragaloside IV]", "Stability (%) Short-term stability": 1.6}

I: COc1ccc(-c2coc3cc(O)ccc3c2=O)cc1
II: CCC/C=C1\OC(=O)C2=C1CCC=C2 [Ligustilide, ligustilide]
III: C[C@@]12C[C@@]3(O)O[C@@H](O1)[C@]1(COC(=O)c4ccccc4)[C@H]3C[C@@]12O[C@@H]1O[C@H](CO)[C@@H](O)[C@H](O)[C@H]1O
Rank ascending by Stability (%) Short-term stability. Could you list the labels in the order requested?
III, I, II

---

assay: Pharmacokinetics in conscious freely moving rats after oral administration of BYHWT extract (HPLC-MS/MS of plasma); assay type: in vivo, Sprague-Dawley rats; conditions: male, Sprague-Dawley, po; rat plasma, BYHWT extract 10 g/kg p.o., n = 6; read-out: Cmax
property.name: Cmax (ng/mL)

P: COc1ccc(-c2coc3cc(O)ccc3c2=O)cc1O
Q: COc1ccc(-c2coc3cc(O[C@@H]4O[C@H](CO)[C@@H](O)[C@H](O)[C@H]4O)ccc3c2=O)cc1O [Calycosin-7-O-β-D-glucoside, calycosin-7-O-β-D-glucoside]
R: CCC/C=C1\OC(=O)C2=C1CCC=C2 [Ligustilide, ligustilide]
Sort these compounds on Cmax so the largest reading comes first. Could you list the labels in the order requested?
P, Q, R
(P: 1230 ng/mL, Q: 18 ng/mL, R: 7.8 ng/mL)
